# Tested on: Mast/stem cell growth factor receptor Kit (Homo sapiens), P10721 [T670I]
# Sequence (P10721 whole entry T670I): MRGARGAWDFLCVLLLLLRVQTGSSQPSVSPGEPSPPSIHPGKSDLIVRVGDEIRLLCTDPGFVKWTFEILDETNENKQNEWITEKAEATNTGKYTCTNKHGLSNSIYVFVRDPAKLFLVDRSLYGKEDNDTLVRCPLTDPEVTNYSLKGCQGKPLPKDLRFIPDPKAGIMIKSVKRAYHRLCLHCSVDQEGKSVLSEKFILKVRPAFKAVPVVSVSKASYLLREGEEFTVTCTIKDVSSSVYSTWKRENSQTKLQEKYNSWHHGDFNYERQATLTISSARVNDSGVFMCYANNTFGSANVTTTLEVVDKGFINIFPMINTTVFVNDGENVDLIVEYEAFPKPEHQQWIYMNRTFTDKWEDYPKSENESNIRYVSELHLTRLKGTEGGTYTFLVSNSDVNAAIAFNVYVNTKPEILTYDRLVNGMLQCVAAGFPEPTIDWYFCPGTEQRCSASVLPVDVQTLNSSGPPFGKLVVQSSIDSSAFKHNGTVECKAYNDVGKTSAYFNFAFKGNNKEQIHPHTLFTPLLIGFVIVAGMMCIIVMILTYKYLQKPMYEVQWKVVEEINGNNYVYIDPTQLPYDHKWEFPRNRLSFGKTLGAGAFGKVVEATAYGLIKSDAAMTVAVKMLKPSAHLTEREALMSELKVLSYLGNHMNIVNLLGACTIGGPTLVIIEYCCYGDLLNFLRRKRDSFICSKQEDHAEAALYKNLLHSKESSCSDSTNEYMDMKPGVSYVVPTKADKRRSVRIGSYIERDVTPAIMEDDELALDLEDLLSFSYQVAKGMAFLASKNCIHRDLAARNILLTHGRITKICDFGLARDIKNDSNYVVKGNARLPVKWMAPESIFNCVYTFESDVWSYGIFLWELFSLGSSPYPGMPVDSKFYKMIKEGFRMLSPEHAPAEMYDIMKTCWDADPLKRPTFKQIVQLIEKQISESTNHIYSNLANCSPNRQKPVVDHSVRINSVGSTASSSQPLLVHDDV
# Condition parameters: at 0.1 µM
Assay endpoint: inhibition (%)

Molecule: COC(=O)Nc1nc2cc(Oc3ccc(NC(=O)Nc4cccc(C(=O)O)c4)cc3)ccc2[nH]1
Assay endpoint: inhibition
Readout value: -0.34
--
Molecule: Nc1nc(-c2ccc3c(c2)C(=Cc2cc(Br)c(O)c(Br)c2)C(=O)N3)cs1
Assay endpoint: inhibition
Readout value: -2.39
--
Molecule: Fc1cccc(COc2ccc(Nc3ncnc4cc(-c5ccc[nH]5)sc34)cc2Cl)c1
Assay endpoint: inhibition
Readout value: 1.82
--
Molecule: CCc1cccc(NC(=O)Nc2ccc(Oc3ccc4nc(NC(=O)OC)[nH]c4c3)cc2)c1
Assay endpoint: inhibition
Readout value: 58.6
--
Molecule: Nc1ncnc2occ(-c3ccc(NC(=O)Nc4cccc(C(F)(F)F)c4)cc3)c12
Assay endpoint: inhibition
Readout value: 72.5
--
Molecule: O=C1NC(=O)C(N2CCc3ccccc32)=C1c1ccc(Cl)cc1
Assay endpoint: inhibition
Readout value: 3.14
--
Molecule: CCn1c(-c2nonc2N)nc2ccncc21
Assay endpoint: inhibition
Readout value: 0.62
--
Molecule: COC(=O)Nc1nc2cc(Oc3cccc(NC(=O)Nc4cc(C(F)(F)F)ccc4F)c3)ccc2[nH]1
Assay endpoint: inhibition
Readout value: -2.55
--
Molecule: CCn1c(-c2nonc2N)nc2cnc(Oc3cccc(NC(=O)c4ccc(OCCN5CCOCC5)cc4)c3)cc21
Assay endpoint: inhibition
Readout value: 2.87
--
Molecule: COc1cc(C=NNc2ncnc3c2cnn3-c2ccccc2)ccc1O
Assay endpoint: inhibition
Readout value: 4.5
--
Molecule: COc1cc2ncn(-c3cc(O[C@@H](C)c4ccccc4Cl)c(C(N)=O)s3)c2cc1OC
Assay endpoint: inhibition
Readout value: 3.02
--
Molecule: COc1ccc2cc(-c3c(-c4ccncc4)nc(-c4ccc([S+](C)[O-])cc4)n3C)ccc2c1 (stereo not given)
Assay endpoint: inhibition
Readout value: -0.37
--
Molecule: CS(=O)(=O)CCN(CC#N)Cc1ccc(-c2ccc3ncnc(Nc4ccc(OCc5cccc(F)c5)c(Cl)c4)c3c2)o1
Assay endpoint: inhibition
Readout value: 2.04
--
Molecule: CCn1c(-c2nonc2N)nc2cncc(C(=O)N3CCNCC3)c21
Assay endpoint: inhibition
Readout value: 2.72
--
Molecule: CCCN1CCC=C(c2ccc(Nc3nc(Nc4ccccc4C(N)=O)c4cc[nH]c4n3)c(C)c2)C1
Assay endpoint: inhibition
Readout value: 4.53
--
Molecule: COc1cc(C)c(NC(=O)CN(C)C)cc1Nc1nc(Nc2cccc(F)c2C(N)=O)c2cc[nH]c2n1
Assay endpoint: inhibition
Readout value: 0.3
--
Molecule: CC1=C(C(=O)Nc2ccc3[nH]ncc3c2)C(c2ccc(Cl)c(Cl)c2)CC(=O)N1 (stereo not given)
Assay endpoint: inhibition
Readout value: 0.21
--
Molecule: O=C1NC(=O)C(c2cccc(Cl)c2)=C1Nc1ccc(O)c(Cl)c1
Assay endpoint: inhibition
Readout value: -1.24
--
Molecule: COc1cccc(-n2ncc3c(N/N=C/c4cccc(F)c4)ncnc32)c1
Assay endpoint: inhibition
Readout value: 2.67
--
Molecule: CCn1c(-c2nonc2N)nc2cncc(C(=O)N3CC[C@H](N)C3)c21
Assay endpoint: inhibition
Readout value: 3.35
